Cited source: patent US7553867B2

Target: PPARα-RXRα heterodimer (Homo sapiens, UniProt Q07869)
Construct: expressed in transfected cells; host or cells: COS-1 (transient; pMCMVneo-hPPARα + pMCMVneo-hRXRα)
Sequence (Q07869 whole entry, one chain of several): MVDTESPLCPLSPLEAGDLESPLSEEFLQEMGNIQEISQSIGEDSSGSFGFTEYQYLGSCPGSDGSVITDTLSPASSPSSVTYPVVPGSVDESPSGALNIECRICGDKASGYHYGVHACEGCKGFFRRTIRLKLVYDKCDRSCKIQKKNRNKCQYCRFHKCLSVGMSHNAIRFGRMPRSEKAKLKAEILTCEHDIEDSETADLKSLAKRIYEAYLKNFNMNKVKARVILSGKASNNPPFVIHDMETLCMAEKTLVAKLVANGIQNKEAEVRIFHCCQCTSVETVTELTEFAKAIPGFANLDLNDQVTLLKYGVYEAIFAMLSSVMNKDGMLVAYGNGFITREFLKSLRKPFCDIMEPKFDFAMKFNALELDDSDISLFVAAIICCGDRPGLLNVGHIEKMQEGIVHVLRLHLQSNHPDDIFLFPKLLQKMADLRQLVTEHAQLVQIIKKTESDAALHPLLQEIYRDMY
Test: PPARα-RXRα heterodimer ligand activity (luciferase reporter, transfected COS-1 cells)
Type: cell-based
Conditions: luciferase activity at 10 nM compound relative to control without compound as 1
Readout Name: fold induction at 0.01 µM

Cc1oc(-c2ccc(F)cc2)cc1COc1cccc(CSC(C)(C)C(=O)O)c1 [Example 6] : 9.3
Cc1oc(-c2ccc(F)cc2)cc1C(=O)Nc1cccc(CSCC(=O)O)c1 [Example 1] : 10.2
CC(C)c1oc(-c2ccc(C(F)(F)F)cc2)cc1C(=O)Nc1cccc(CSCC(=O)O)c1 [Example 2(1)] : 10.9
Cc1oc(-c2ccc(C(F)(F)F)cc2)cc1COc1cccc(CSCC(=O)O)c1 [Example 6(2)] : 9.2
CCc1oc(-c2ccc(C(F)(F)F)cc2)cc1COc1cccc(CSCC(=O)O)c1 [Example 5(5)] : 10.1

Next:
Tell me reported fold induction at 0.01 µM for Cc1oc(-c2ccc(F)cc2)cc1COc1cccc(CSCC(=O)O)c1 [Example 6(1)] , tested with PPARα-RXRα heterodimer (Homo sapiens, UniProt Q07869).
8.9

* * *

Molecular target: PPARδ-RXRα heterodimer (Homo sapiens, UniProt Q03181)
Construct: expressed in transfected cells; host or cells: COS-1 (transient; pMCMVneo-hPPARδ + pMCMVneo-hRXRα)
Sequence (Q03181 1-441): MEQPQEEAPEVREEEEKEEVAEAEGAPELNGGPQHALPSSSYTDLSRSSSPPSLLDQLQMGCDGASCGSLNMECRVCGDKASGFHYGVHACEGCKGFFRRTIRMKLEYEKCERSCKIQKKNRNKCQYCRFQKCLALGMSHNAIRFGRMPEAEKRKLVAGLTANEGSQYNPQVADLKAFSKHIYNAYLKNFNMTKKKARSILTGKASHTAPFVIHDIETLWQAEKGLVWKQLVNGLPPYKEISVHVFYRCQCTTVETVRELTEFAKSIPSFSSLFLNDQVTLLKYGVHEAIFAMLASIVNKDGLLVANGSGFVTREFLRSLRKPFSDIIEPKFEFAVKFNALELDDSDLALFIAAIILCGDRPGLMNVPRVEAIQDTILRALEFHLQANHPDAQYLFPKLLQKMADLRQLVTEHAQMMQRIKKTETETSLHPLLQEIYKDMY
Sequence (P19793 1-462 partner): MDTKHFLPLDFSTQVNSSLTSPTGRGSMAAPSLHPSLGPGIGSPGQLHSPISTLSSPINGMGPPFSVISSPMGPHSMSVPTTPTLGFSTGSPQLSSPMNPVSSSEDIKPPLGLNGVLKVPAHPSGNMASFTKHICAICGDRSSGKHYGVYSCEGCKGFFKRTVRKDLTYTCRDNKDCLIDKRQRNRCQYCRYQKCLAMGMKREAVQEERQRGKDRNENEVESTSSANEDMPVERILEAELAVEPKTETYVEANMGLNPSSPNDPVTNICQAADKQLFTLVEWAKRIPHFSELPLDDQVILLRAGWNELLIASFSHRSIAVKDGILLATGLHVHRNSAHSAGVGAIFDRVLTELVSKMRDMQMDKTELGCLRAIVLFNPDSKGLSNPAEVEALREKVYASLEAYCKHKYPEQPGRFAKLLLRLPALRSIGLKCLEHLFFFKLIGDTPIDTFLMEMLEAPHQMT
Assay: PPARδ-RXRα heterodimer ligand activity (luciferase reporter, transfected COS-1 cells)
Type: cell-based
Settings: luciferase activity at 10 nM test compound relative to non-administration group as 1
Readout Name: fold induction at 0.01 µM
No unit in the answer, please; the number alone is enough.

Cc1cc(OCc2cc(-c3ccc(C(F)(F)F)cc3)oc2C)ccc1CCC(=O)O [Example 6(4)] : 7.4
CCc1oc(-c2ccc(C(F)(F)F)cc2)cc1COc1ccc(CCC(=O)O)c(C)c1 [Example 5(9)] : 6.7

Tell me reported fold induction at 0.01 µM for COc1cc(OCc2cc(-c3ccc(C(F)(F)F)cc3)oc2C)ccc1CCC(=O)O [Example 6(6)] , tested with PPARδ-RXRα heterodimer (Homo sapiens, UniProt Q03181).
6.6

Tell me reported fold induction at 0.01 µM for Cc1cc(OCCCc2cc(-c3ccc(C(F)(F)F)cc3)oc2C)ccc1CCC(=O)O [Example 6(24)] , tested with PPARδ-RXRα heterodimer (Homo sapiens, UniProt Q03181).
6.8

Tell me reported fold induction at 0.01 µM for CCc1oc(-c2ccc(C(F)(F)F)cc2)cc1CCCOc1cccc(CC(=O)O)c1 [Example 6(26)] , tested with PPARδ-RXRα heterodimer (Homo sapiens, UniProt Q03181).
5.6

* * *

Measured melting point, listed per entry.

Cc1oc(-c2ccc(C(F)(F)F)cc2)cc1CCc1nc(C(C)C)c(CC(=O)O)o1 [Example 13(7)] : 126 to 128 °C
COc1cc(OCc2cc(-c3ccc(C(F)(F)F)cc3)oc2C)ccc1CCC(=O)O [Example 6(6)] : 159 to 160 °C
COc1cccc(-c2cc(CSc3nc(C)c(CC(=O)O)s3)c(C)o2)c1 [Example 6(53)] : 174 to 176 °C

Record request: melting point value, item Cc1oc(-c2ccc(C(F)(F)F)cc2)cc1COc1cccc(SC(C)(C)C(=O)O)c1 [Example 6(118)]
127 to 128 °C

Record request: melting point value, item CCc1oc(-c2ccc(C(F)(F)F)cc2)cc1CCCOc1cccc(CC(=O)O)c1 [Example 6(26)]
113 to 114 °C

Record request: melting point value, item Cc1oc(-c2ccc(OC(F)(F)F)cc2)cc1C(=O)Nc1cccc(CSCC(=O)O)c1 [Example 4(2)]
200 to 202 °C

Record request: melting point value, item Cc1oc(-c2ccc(C(F)(F)F)cc2)cc1COc1ccc(OC(C)(C)C(=O)O)c(F)c1 [Example 6(68)]
82 to 83 °C

Record request: melting point value, item Cc1oc(-c2ccc(C(F)(F)F)cc2)cc1COc1cccc(CSC(C)C(=O)O)c1 (stereo not shown) [Example 9(1)]
82 to 83 °C

Record request: melting point value, item Cc1cc(OCc2cc(-c3ccc(C(F)(F)F)cc3)oc2C(C)C)ccc1CCC(=O)O [Example 5(10)]
108 to 109 °C

Record request: melting point value, item Cc1oc(-c2ccc(C(F)(F)F)cc2)cc1COc1ccc2cc(CCC(=O)O)ccc2c1 [Example 6(34)]
191 to 192 °C

Record request: melting point value, item CCCCCCCN(C(=O)c1cc(-c2ccc(F)cc2)oc1C)c1cccc(CSCC(=O)O)c1 [Example 1(3)]
94 to 96 °C

Record request: melting point value, item Cc1oc(-c2ccc(C(F)(F)F)cc2)cc1COc1cccc(C(C)(C)C(=O)O)c1 [Example 6(85)]
127 to 128 °C

Record request: melting point value, item Cc1oc(-c2ccc(C(F)(F)F)cc2)cc1CCOc1ccc(CC(=O)O)cc1 [Example 6(13)]
115 to 116 °C

Record request: melting point value, item CCOC(=O)C(C)(C)Oc1ccc(/C=C\c2cc(-c3ccc(C(F)(F)F)cc3)oc2C)cc1 [Example 21-b]
84 to 85 °C

Record request: melting point value, item Cc1oc(-c2ccc(C(F)(F)F)cc2)cc1COc1ccc(CC(C)(C)C(=O)O)cc1 [Example 6(78)]
125 to 127 °C

Record request: melting point value, item COc1cccc(-c2cc(COc3ccc(OC(C)(C)C(=O)O)cc3)c(C)o2)c1 [Example 6(60)]
111 to 112 °C

* * *

Readout Name: melting point

Below, each entry is followed by its recorded melting point result.
Cc1cc(OCc2cc(-c3ccc(C(F)(F)F)cc3)oc2C)ccc1CC(=O)O [Example 6(3)] : 147 to 149 °C
Cc1oc(-c2cccc(C(F)(F)F)c2)cc1COc1ccc(SC(C)(C)C(=O)O)cc1 [Example 6(108)] : 108 to 109 °C
Cc1oc(-c2ccc(C(F)(F)F)cc2)cc1COc1ccc2sc(CCC(=O)O)cc2c1 [Example 6(103)] : 187 to 188 °C
Cc1oc(-c2ccc(Cl)cc2)cc1COc1cccc(CSC(C)(C)C(=O)O)c1 [Example 6(111)] : 143 to 144 °C
Cc1oc(-c2ccc(C(F)(F)F)cc2)cc1CCCOc1ccc(OC(C)(C)C(=O)O)cc1 [Example 6(31)] : 123 to 124 °C
Cc1oc(-c2ccc(C(F)(F)F)cc2)cc1COc1ccc(CC(=O)O)cc1 [Example 6(9)] : 147 to 149 °C
Cc1oc(-c2ccc(C(F)(F)F)cc2)cc1COc1ccc(CCC(=O)O)cc1 [Example 6(123)] : 182 to 183 °C
Cc1oc(-c2ccc(F)cc2)cc1COc1cccc(CCCC(=O)O)c1 [Example 6(19)] : 98 to 99 °C

Record request: melting point value, item Cc1oc(-c2ccc(C(F)(F)F)cc2)cc1COc1ccc2sc(CC(=O)O)cc2c1 [Example 6(101)]
153 to 154 °C

Record request: melting point value, item CCCCc1oc(-c2ccc(C(F)(F)F)cc2)cc1CCCOc1cccc(CC(=O)O)c1 [Example 6(15)]
80 to 82 °C

Record request: melting point value, item Cc1ccc(-c2cc(COc3cccc(CSC(C)(C)C(=O)O)c3)c(C)o2)cc1 [Example 6(120)]
121 to 122 °C

Record request: melting point value, item Cc1oc(-c2cccc(C(F)(F)F)c2)cc1COc1ccc(OC(C)(C)C(=O)O)cc1 [Example 6(63)]
83 to 84 °C

Record request: melting point value, item Cc1oc(-c2ccc(C(F)(F)F)cc2)cc1COc1ccc(OC(C)(C)C(=O)O)cc1 [Example 6(5)]
134 to 135 °C

Record request: melting point value, item Cc1oc(-c2ccc(C(F)(F)F)cc2)cc1/C=C/c1ccc(OC(C)(C)C(=O)O)cc1 [Example 22(1)]
140 to 141 °C
